# test-system: T1, human IL-23 (human, UniProt Q9NPF7 20-189; P29460 23-328)
# T1 sequence (looked up) 1: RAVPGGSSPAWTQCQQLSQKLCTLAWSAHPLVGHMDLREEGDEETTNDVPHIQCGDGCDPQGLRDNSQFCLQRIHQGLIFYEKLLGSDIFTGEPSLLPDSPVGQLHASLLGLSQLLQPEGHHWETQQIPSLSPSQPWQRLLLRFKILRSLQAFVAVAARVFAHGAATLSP
# T1 sequence (looked up) 2: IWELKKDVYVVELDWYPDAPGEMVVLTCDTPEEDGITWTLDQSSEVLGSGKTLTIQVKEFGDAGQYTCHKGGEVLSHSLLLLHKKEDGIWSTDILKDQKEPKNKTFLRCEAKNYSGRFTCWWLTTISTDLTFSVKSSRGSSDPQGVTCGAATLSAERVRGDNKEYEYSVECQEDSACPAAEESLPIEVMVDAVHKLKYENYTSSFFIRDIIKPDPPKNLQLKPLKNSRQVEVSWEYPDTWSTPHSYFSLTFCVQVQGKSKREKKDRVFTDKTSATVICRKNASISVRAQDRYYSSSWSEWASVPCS
# test-description: cell-based or functional assay
Each entry below carries its recorded IL-17 EC50.
Give a bare numeral; the unit nM is implied.

- binder: "1571G06 (designed binder, captured by anti-His mAb) MGVSDVPRDLEVVAATPTSLLISWGHYPLHLRYYRITYGETGGNSPVQEFTVPRTKYTATISGLKPGVDYTITVYAVTYYKEADYSQIPISINYRTEIDKPSQHHHHHH"
  IL-17 EC50 [nM]: 3.5
- binder: "1572G06 (designed binder, captured by anti-His mAb) MGVSDVPRDLEVVAATPTSLLISWGHYPLHVRYYRITYGETGGNSPVQEFTVPRYKYTATISGLKPGVDYTITVYAVTYYAQENYKEIPISINYRTEIDKPSQHHHHHH"
  IL-17 EC50 [nM]: 1.6
- binder: "1490B03 (designed binder, captured by anti-His mAb) MGVSDVPRDLEVVAATPTSLLISWGHYPLHVRYYRITYGETGGNSPVQEFTVPSRKYTATISGLKPGVDYTITVYAVTYYKEANYREIPISINYRTEIDKPSQHHHHHH"
  IL-17 EC50 [nM]: 1.4

Form field IL-17 EC50, entry 1550 E06 (designed binder, captured by anti-His mAb) MGVSDVPRDLEVVAATPTSLLISWGHYPMHVRYYRITYGETGGNSPVQEFTVPPPRHTATISGLKPGVDYTITVYAVTYYAQENYKEIPISINYRTEIDKPSQHHHHHH : 1.5

Reference source for all entries: patent US20130012436A1
